I'd appreciate it if you could supply IC90 values for the items below.
- System: Plasmodium berghei
- Assay Procedure: Luciferase/luciferin-expressing antifolate-resistant parasites were used to infect a culture of HepG2 cells that were pre-incubated with compounds. Infected hepatocytes emit light due to the luciferase reaction. Assay results are presented as the percent inhibition of light emission compared to control. […]
- Type: functional
- Conditions Used: sporozoite, read-out: LUCIFERASE INFECTION ASSAY - IC90

Record lookup: for Plasmodium berghei, what IC90 belongs to CSC1=C(C#N)C(=O)NC(c2ccc(Cl)cc2Cl)S1 (configuration not stated) ?
> 9.96 µM

Record lookup: for Plasmodium berghei, what IC90 belongs to `N#C/C(=N\Nc1cc(C(F)(F)F)ccc1OCC(F)(F)F)S(=O)(=O)c1ccccc1` ?
0.397 µM

Record lookup: for Plasmodium berghei, what IC90 belongs to CC1=NC(C)=C(C#N)C(c2cc(Br)ccc2OC(F)F)C1C#N (configuration not stated) ?
4.24 µM

Record lookup: for Plasmodium berghei, what IC90 belongs to `CS(=O)(=O)Nc1ccc(-c2csc(NC(=O)c3sc4sccc4c3Cl)n2)cc1` ?
9.72 µM

Record lookup: for Plasmodium berghei, what IC90 belongs to `CCCCN(C(=O)CCC(=O)OCC(=O)NC(=O)NCC)c1c(N)n(CCC)c(=O)[nH]c1=O` ?
> 10 µM

Record lookup: for Plasmodium berghei, what IC90 belongs to `CN(C)c1nc(N)nc(COC(=O)c2cccc(Br)c2)n1` ?
> 10 µM

Record lookup: for Plasmodium berghei, what IC90 belongs to `O=C(COC(=O)c1ccccc1Nc1cccc(C(F)(F)F)c1)c1ccc(C2CCCCC2)cc1` ?
> 10 µM

Record lookup: for Plasmodium berghei, what IC90 belongs to `COc1cc(-c2nc3ccc(NC(=O)Nc4cccc(C(F)(F)F)c4)cn3n2)cc(OC)c1OC` ?
8.43 µM

Record lookup: for Plasmodium berghei, what IC90 belongs to CCC1CCc2sc(C(=O)Nc3ccccc3O)cc2C1 (configuration not stated) ?
> 10 µM

Record lookup: for Plasmodium berghei, what IC90 belongs to C=S(NC(=O)Nc1ccc(Cl)cc1)c1sc(Cl)c2c1C(=O)CCC2 (configuration not stated) ?
> 8.22 µM

Record lookup: for Plasmodium berghei, what IC90 belongs to `Nc1nccnc1C(=O)Nc1ncc(Cc2cc(Cl)cc(Cl)c2)s1` ?
7.09 µM

Record lookup: for Plasmodium berghei, what IC90 belongs to `Cc1cc(C)c(NC(=O)C(=O)NC(C)C)c(C)c1` ?
11 µM

Record lookup: for Plasmodium berghei, what IC90 belongs to `N#C/C(=C\c1ccc(C(F)(F)F)cc1)c1c[nH]c2ccccc12` ?
> 10.6 µM

Record lookup: for Plasmodium berghei, what IC90 belongs to `CCc1c(C(=O)/C=C/c2cccc(C#N)c2)oc2ccccc12` ?
9.02 µM

Record lookup: for Plasmodium berghei, what IC90 belongs to `Oc1cccc(-c2cnc3ccc(-c4cccc(C(F)(F)F)c4)nn23)c1` ?
> 10 µM

Record lookup: for Plasmodium berghei, what IC90 belongs to COc1cc(/C=C(/C(=O)OCC(=O)NC2CCCCC2C)c2ccc(-c3ccccc3)cc2)cc(OC)c1OC (configuration not stated) ?
3.8 µM

Record lookup: for Plasmodium berghei, what IC90 belongs to OC1CCC(Nc2nn3c(-c4ccc5ccccc5c4)cnc3s2)CC1 (configuration not stated) ?
> 9.05 µM

Record lookup: for Plasmodium berghei, what IC90 belongs to Cc1ccc(N2C(=N)C(c3nc4ccccc4s3)C(c3ccccc3)C2=O)cc1 (configuration not stated) ?
> 10 µM

Record lookup: for Plasmodium berghei, what IC90 belongs to CO[C@H]1[C@H](O)[C@H](O[C@H]2CC[C@]3(C)C4CC[C@]5(C)C(C6=CC(=O)OC6)CC[C@]5(O)C4CC[C@@H]3C2)O[C@@H](C)[C@@H]1O (some centres not stated) ?
0.138 µM

Record lookup: for Plasmodium berghei, what IC90 belongs to `CCOC(=O)NC(=O)COC(=O)CCc1ccc(OC)cc1` ?
> 10 µM

Record lookup: for Plasmodium berghei, what IC90 belongs to `COc1cc(F)c(S(=O)(=O)N2CCCc3cc(F)cc(F)c32)cc1OC` ?
> 10 µM

Record lookup: for Plasmodium berghei, what IC90 belongs to CCOc1ncccc1C(=O)NCC(c1ccc(OC)cc1)N1CCCCC1 (configuration not stated) ?
> 10 µM

Record lookup: for Plasmodium berghei, what IC90 belongs to `CN(Cc1ccccc1NC(=O)/C=C/c1cnn(-c2ccccc2)c1)C1CCCCC1` ?
> 10 µM

Record lookup: for Plasmodium berghei, what IC90 belongs to `CCOC(=O)c1c(C)nn(-c2ncccc2NC(=O)Nc2cccc(Cl)c2Cl)c1C` ?
> 7.36 µM

Record lookup: for Plasmodium berghei, what IC90 belongs to `O=S(=O)(Oc1ccc2oc3ccccc3c2c1)c1ccccc1F` ?
> 10 µM

Record lookup: for Plasmodium berghei, what IC90 belongs to `COc1cc2c(cc1NC(=O)c1cccc(F)c1)CCCC2` ?
> 11 µM

Record lookup: for Plasmodium berghei, what IC90 belongs to `COC(=O)c1scc(S(=O)(=O)Cc2ccco2)c1NN=C(C#N)C#N` ?
> 8.72 µM

Record lookup: for Plasmodium berghei, what IC90 belongs to CC(C(=O)NC(N)=O)N(C)Cc1ccc(OCc2ccc(Cl)cc2)cc1 (configuration not stated) ?
9.89 µM

Record lookup: for Plasmodium berghei, what IC90 belongs to `CC(=O)c1cccc(-c2cnc3cnc(-c4cccnc4)cn23)c1` ?
> 10.5 µM

Record lookup: for Plasmodium berghei, what IC90 belongs to `O=C(Nc1ccccc1)Nc1cccc(Cl)c1` ?
> 13.4 µM

Record lookup: for Plasmodium berghei, what IC90 belongs to CC(Sc1nnc2ccc(C(F)(F)F)cn12)C(=O)NCC1CCCO1 (configuration not stated) ?
> 10 µM

Record lookup: for Plasmodium berghei, what IC90 belongs to COC(=O)c1ccc2c(=O)n(-c3ccccc3)c(SCC3CCCCO3)nc2c1 (configuration not stated) ?
> 10 µM

Record lookup: for Plasmodium berghei, what IC90 belongs to `COc1cccc(-c2ccc3nnc(-c4ccc5c(c4)OCO5)n3c2)c1` ?
0.981 µM

Record lookup: for Plasmodium berghei, what IC90 belongs to `Cc1nn(-c2ccccc2)nc1C(=O)NCc1ccccc1-c1ccc(CN(C)C)cc1` ?
5.83 µM

Record lookup: for Plasmodium berghei, what IC90 belongs to O=C(NC1CCSc2ccc(Cl)cc21)c1cc(Br)c[nH]1 (configuration not stated) ?
> 10 µM

Record lookup: for Plasmodium berghei, what IC90 belongs to `CCc1cccc2c(/C=C(\C#N)c3nc4ccccc4[nH]3)c[nH]c12` ?
> 10 µM

Record lookup: for Plasmodium berghei, what IC90 belongs to `CC(C)c1ccccc1NC(=O)COC(=O)C(C)(C)Oc1ccc(Cl)cc1` ?
> 10 µM

Record lookup: for Plasmodium berghei, what IC90 belongs to `CC(C)N1CCN(c2ccc(-c3cn4c(-c5ccc(O)cc5)cnc4cn3)cc2)CC1` ?
> 7.98 µM

Record lookup: for Plasmodium berghei, what IC90 belongs to `CC(C)(C)c1ccc(-c2nnc(SCc3ccccc3)n2-c2cccc(C(F)(F)F)c2)cc1` ?
> 7.06 µM

Record lookup: for Plasmodium berghei, what IC90 belongs to `CCOc1ccc(C(=O)Nc2ccc(N(CC)CC)cc2)cc1Br` ?
3.6 µM

Record lookup: for Plasmodium berghei, what IC90 belongs to `FC(F)(F)c1cc(NCc2ccc(Cl)cc2)nc(-c2ccccn2)n1` ?
> 9.05 µM

Record lookup: for Plasmodium berghei, what IC90 belongs to `CCc1ccc(CN(Cc2cccnc2)C(=O)c2ccc3ccccc3n2)cc1` ?
4.26 µM

* * *

- Tested on: Plasmodium berghei
- Assay Procedure: Luciferase/luciferin-expressing antifolate-resistant parasites were used to infect a culture of HepG2 cells that were pre-incubated with compounds. Infected hepatocytes emit light due to the luciferase reaction. Assay results are presented as the percent inhibition of light emission compared to control. […]
- Type: functional
- Conditions Used: sporozoite, PBLUC_HILL_SLOPE 2.11, PBLUC_R_SQUARED 0.385, read-out: LUCIFERASE INFECTION ASSAY - IC50
Property Name: IC50 (µM)
Number in µM, nothing else.

IC50 for `CN1CCN(c2ccc(-c3cn4c(-c5cccc(N(C)C)c5)cnc4cn3)cn2)CC1` ?
6.15

* * *

- Test system: Plasmodium berghei
- Assay Procedure: Luciferase/luciferin-expressing antifolate-resistant parasites were used to infect a culture of HepG2 cells that were pre-incubated with compounds. Infected hepatocytes emit light due to the luciferase reaction. Assay results are presented as the percent inhibition of light emission compared to control. […]
- Assay type: functional
- Conditions Used: sporozoite, HEPG2TOX_HILL_SLOPE 1.44, HEPG2TOX_R_SQUARED 0.945, PBLUC_HILL_SLOPE 1.93, PBLUC_R_SQUARED 0.583, read-out: LUCIFERASE INFECTION ASSAY - IC50
Property Name: pIC50
Just the number, please; pIC50 means minus log10 of the concentration in mol/L.

pIC50 for `Cc1cc(-c2cnc(N)c(-c3cccc(C(F)(F)F)c3)c2)cc(C)c1O` ?
5.81
